System: 186277-243-T-J2-PDC complex spheroid viability
experimentalProtocol: Anticancer human tumor 186277-243-T-J2-PDC patient-derived colon adenocarcinoma cell line growth inhibition [POLQ]
conditionLabel: curve of first compound; second compound 0.1 µM
quantityName: IC50

Fill in: IC50 of CCc1cc2c(N3CCc4c(cc(Cn5ccnc5)cc4-c4cn(C)nc4C(F)(F)F)C3=O)cc(C)nc2c(OC)n1 + Cc1cccc(N(C)C(=O)C2C(O)CCN2c2nc(C)cc(C(F)(F)F)c2C#N)c1 is ___
> 10 µM

# iterate: O=C(Nc1ccc(O)c(NS(=O)(=O)c2ccc(F)cc2)c1)c1ccc(-c2ccccc2)cc1 + COC1C(OC(N)=O)C(O)C(Oc2ccc3c(O)c(NC(=O)c4ccc(O)c(CC=C(C)C)c4)c(=O)oc3c2C)OC1(C)C
> 10 µM

Likewise for COc1cc2cc(C(=O)CCC(=O)O)sc2cc1OC + Nc1ccc(C#CCN(C(=O)Cc2ncc(C(F)(F)F)cc2C(F)(F)F)c2ccc(F)cc2)nn1 ?
> 10 µM

----------
System: 186277-243-T-J2-PDC complex spheroid viability
experimentalProtocol: Anticancer human tumor 186277-243-T-J2-PDC cell line growth inhibition [POLQ];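 note: spheroids exposed to compounds for seven days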;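 for viability, T/C: 100% = DMSO vehicle control viability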
conditionLabel: second compound 1 µM; first compound 0.0316 µM; stronger effect = lower value
Please provide measured viability, T/C for the entries that follow.
Entry rule: numbers only, all in %.

Reported viability, T/C for CC1COCCN1c1cc(-c2ccnn2C)c2ccnc(-c3ccn[nH]3)c2n1 (stereo unspecified) + Cc1cccc(N(C)C(=O)C2C(O)CCN2c2nc(C)cc(C(F)(F)F)c2C#N)c1 : what is it?
72.3

// next record COc1cccc(OCCCN)c1-c1cc(Nc2cnc(C#N)cn2)n[nH]1 + COC1C(OC(N)=O)C(O)C(Oc2ccc3c(O)c(NC(=O)c4ccc(O)c(CC=C(C)C)c4)c(=O)oc3c2C)OC1(C)C
4.79

Another compound to look at: C=CC(=O)N1CCN(c2nc(=O)n(-c3c(C)ccnc3C(C)C)c3nc(-c4c(O)cccc4F)c(F)cc23)C(C)C1 (stereo unspecified) + Nc1ccc(C#CCN(C(=O)Cc2ncc(C(F)(F)F)cc2C(F)(F)F)c2ccc(F)cc2)nn1
91.8

Same read-out for COc1ccc([C@@H](O)c2cc(-c3ncnc4cc(N5CCOCC5)ccc34)c(F)cc2Cl)nn1 + Nc1ccc(C#CCN(C(=O)Cc2ncc(C(F)(F)F)cc2C(F)(F)F)c2ccc(F)cc2)nn1 ?
114

C=CCn1c(=O)c2cnc(Nc3ccc(N4CCN(C)CC4)cc3)nc2n1-c1cccc(C(C)(C)O)n1 + Cc1cccc(N(C)C(=O)C2C(O)CCN2c2nc(C)cc(C(F)(F)F)c2C#N)c1 , same question.
104

Thanks! And O=C(c1cc(Cc2n[nH]c(=O)c3ccccc23)ccc1F)N1CCN(C(=O)C2CC2)CC1 + Cc1cccc(N(C)C(=O)C2C(O)CCN2c2nc(C)cc(C(F)(F)F)c2C#N)c1 ?
101

Consider next the compound CCc1cc2c(N3CCc4c(cc(Cn5ccnc5)cc4-c4cn(C)nc4C(F)(F)F)C3=O)cc(C)nc2c(OC)n1 + COC1C(OC(N)=O)C(O)C(Oc2ccc3c(O)c(NC(=O)c4ccc(O)c(CC=C(C)C)c4)c(=O)oc3c2C)OC1(C)C in the same way.
99.1

Lookup O=c1[nH]cc(F)c(=O)[nH]1 + Cc1cccc(N(C)C(=O)C2C(O)CCN2c2nc(C)cc(C(F)(F)F)c2C#N)c1
102

Param item: Nc1ccn(C2OC(CO)C(O)C2(F)F)c(=O)n1 (stereo unspecified) + COC1C(OC(N)=O)C(O)C(Oc2ccc3c(O)c(NC(=O)c4ccc(O)c(CC=C(C)C)c4)c(=O)oc3c2C)OC1(C)C
6.65

Next compound: Nc1ccn(C2OC(CO)C(O)C2(F)F)c(=O)n1 (stereo unspecified) + Cc1cccc(N(C)C(=O)C2C(O)CCN2c2nc(C)cc(C(F)(F)F)c2C#N)c1
8.61

Repeat for the following compound: COc1ccc([C@@H](O)c2cc(-c3ncnc4cc(N5CCOCC5)ccc34)c(F)cc2Cl)nn1 + Cc1cccc(N(C)C(=O)C2C(O)CCN2c2nc(C)cc(C(F)(F)F)c2C#N)c1
100

----------
I'd appreciate it if you could supply viability, T/C values for the items below.
Test system: 186277-243-T-J2-PDC complex spheroid viability
experimentalProtocol: Anticancer human tumor 186277-243-T-J2-PDC cell line growth inhibition [POLQ];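 note: spheroids exposed to compounds for seven days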;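 for viability, T/C: 100% = DMSO vehicle control viability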
conditionLabel: second compound 0.316 µM; first compound 0.0316 µM; stronger effect = lower value
Experimental: Multicellular complex tumor spheroid response to Polymerase (POL) inhibitors (novobiocin, ART-558, RP6685) in combination with a variety of drugs and investigational agents in selected tumor cell lines The POL inhibitors (novobiocin, ART-558, and RP6685) were evaluated both individually and in combination with standard of care and investigational anticancer small molecules within a complex spheroid model of solid tumors. . […]
Record the value in %, omitting the unit from your answer.

Give viability, T/C (186277-243-T-J2-PDC complex spheroid viability) of the following molecule: CC1COCCN1c1cc(-c2ccnn2C)c2ccnc(-c3ccn[nH]3)c2n1 (stereo not given) + Nc1ccc(C#CCN(C(=O)Cc2ncc(C(F)(F)F)cc2C(F)(F)F)c2ccc(F)cc2)nn1
126

What do you get for Cn1ncnc1[C@H]1c2n[nH]c(=O)c3cc(F)cc(c23)N[C@@H]1c1ccc(F)cc1 + Cc1cccc(N(C)C(=O)C2C(O)CCN2c2nc(C)cc(C(F)(F)F)c2C#N)c1 ?
145

Next molecule: COc1cccc2c1C(=O)c1c(O)c3c(c(O)c1C2=O)CC(O)(C(=O)CO)CC3OC1CC(N)C(O)C(C)O1 (stereo not given) + Cc1cccc(N(C)C(=O)C2C(O)CCN2c2nc(C)cc(C(F)(F)F)c2C#N)c1
96.9

And then COc1cccc(OCCCN)c1-c1cc(Nc2cnc(C#N)cn2)n[nH]1 + COC1C(OC(N)=O)C(O)C(Oc2ccc3c(O)c(NC(=O)c4ccc(O)c(CC=C(C)C)c4)c(=O)oc3c2C)OC1(C)C , what is it?
5.3

Same again, this time with CC1COCCN1c1cc(C2(O)CC3CCC(C2)O3)c2cnn(-c3ccn[nH]3)c2n1 (stereo not given) + Cc1cccc(N(C)C(=O)C2C(O)CCN2c2nc(C)cc(C(F)(F)F)c2C#N)c1
65.4

Try this molecule too: CC(C)n1c(=O)n(C)c2cnc3cc(F)c(-c4ccc(OCCCN5CCCCC5)nc4)cc3c21 + Nc1ccc(C#CCN(C(=O)Cc2ncc(C(F)(F)F)cc2C(F)(F)F)c2ccc(F)cc2)nn1
92.7

What about O=C(c1cc(Cc2n[nH]c(=O)c3ccccc23)ccc1F)N1CCN(C(=O)C2CC2)CC1 + COC1C(OC(N)=O)C(O)C(Oc2ccc3c(O)c(NC(=O)c4ccc(O)c(CC=C(C)C)c4)c(=O)oc3c2C)OC1(C)C ?
98.5

Also need COc1cc(C2c3cc4c(cc3C(OC3OC5COC(C)OC5C(O)C3O)C3COC(=O)C23)OCO4)cc(OC)c1O (stereo not given) + Cc1cccc(N(C)C(=O)C2C(O)CCN2c2nc(C)cc(C(F)(F)F)c2C#N)c1 , thanks.
105

Cool, now CC1COCCN1c1cc(C2(S(C)(=N)=O)CC2)nc(-c2ccnc3[nH]ccc23)n1 (stereo not given) + Cc1cccc(N(C)C(=O)C2C(O)CCN2c2nc(C)cc(C(F)(F)F)c2C#N)c1
117

Try the molecule CCc1c2c(nc3ccc(O)cc13)-c1cc3c(c(=O)n1C2)COC(=O)[C@]3(O)CC + COC1C(OC(N)=O)C(O)C(Oc2ccc3c(O)c(NC(=O)c4ccc(O)c(CC=C(C)C)c4)c(=O)oc3c2C)OC1(C)C
22.4

// same read-out, input: COc1cc(C2c3cc4c(cc3C(OC3OC5COC(C)OC5C(O)C3O)C3COC(=O)C23)OCO4)cc(OC)c1O (stereo not given) + Nc1ccc(C#CCN(C(=O)Cc2ncc(C(F)(F)F)cc2C(F)(F)F)c2ccc(F)cc2)nn1
97.8

And what about the molecule CC1COCCN1c1cc(-c2ccnn2C)c2ccnc(-c3ccn[nH]3)c2n1 (stereo not given) + COC1C(OC(N)=O)C(O)C(Oc2ccc3c(O)c(NC(=O)c4ccc(O)c(CC=C(C)C)c4)c(=O)oc3c2C)OC1(C)C ?
67.6

Let us now turn to C=CC(=O)N1CCN(c2nc(=O)n(-c3c(C)ccnc3C(C)C)c3nc(-c4c(O)cccc4F)c(F)cc23)C(C)C1 (stereo not given) + Cc1cccc(N(C)C(=O)C2C(O)CCN2c2nc(C)cc(C(F)(F)F)c2C#N)c1
90.4

For CCc1cc2c(N3CCc4c(cc(Cn5ccnc5)cc4-c4cn(C)nc4C(F)(F)F)C3=O)ccnc2c(OC)n1 + Cc1cccc(N(C)C(=O)C2C(O)CCN2c2nc(C)cc(C(F)(F)F)c2C#N)c1 then?
96.7

Can you handle COc1cccc(OCCCN)c1-c1cc(Nc2cnc(C#N)cn2)n[nH]1 + Cc1cccc(N(C)C(=O)C2C(O)CCN2c2nc(C)cc(C(F)(F)F)c2C#N)c1 next?
10.7

Same question for C#Cc1c(F)ccc2cc(O)cc(-c3ncc4c(N5CC6CCC(C5)N6)nc(OCC56CCCN5CC(F)C6)nc4c3F)c12 (stereo not given) + Nc1ccc(C#CCN(C(=O)Cc2ncc(C(F)(F)F)cc2C(F)(F)F)c2ccc(F)cc2)nn1 please.
83.5

Try this molecule too: CCCS(=O)(=O)Nc1ccc(F)c(C(=O)c2c[nH]c3ncc(-c4ccc(Cl)cc4)cc23)c1F + Nc1ccc(C#CCN(C(=O)Cc2ncc(C(F)(F)F)cc2C(F)(F)F)c2ccc(F)cc2)nn1
89.7

// repeat for COc1ccc([C@@H](O)c2cc(-c3ncnc4cc(N5CCOCC5)ccc34)c(F)cc2Cl)nn1 + COC1C(OC(N)=O)C(O)C(Oc2ccc3c(O)c(NC(=O)c4ccc(O)c(CC=C(C)C)c4)c(=O)oc3c2C)OC1(C)C and report
102

Moving on to COc1cc(C2c3cc4c(cc3C(OC3OC5COC(C)OC5C(O)C3O)C3COC(=O)C23)OCO4)cc(OC)c1O (stereo not given) + COC1C(OC(N)=O)C(O)C(Oc2ccc3c(O)c(NC(=O)c4ccc(O)c(CC=C(C)C)c4)c(=O)oc3c2C)OC1(C)C
114

Follow-up entry: C#Cc1c(F)ccc2cc(O)cc(-c3ncc4c(N5CC6CCC(C5)N6)nc(OCC56CCCN5CC(F)C6)nc4c3F)c12 (stereo not given) + Cc1cccc(N(C)C(=O)C2C(O)CCN2c2nc(C)cc(C(F)(F)F)c2C#N)c1
86.9

Ref: PubChem BioAssay AID1963854
